- Assay Remarks: Microsomal clearance assay (M)
- Condition Context: intrinsic clearance in rat liver microsomes
Experimental Endpoint: Assay M RLM CI(int) (µL/min/mg)

>  <Molecule>
Cc1ccc(S(=O)(=O)NC2CC3(CC(O)C3)C2)cc1-c1cnc(N)c(-c2cn(C)nc2C)n1 (single isomer, unassigned) [Example 9b]

>  <Assay M RLM CI(int) / µL/min/mg>
27

$$$$
>  <Molecule>
Cc1csc(-c2nc(-c3cc(S(=O)(=O)NCC(C)(C)O)ccc3C)cnc2N)n1

>  <Assay M RLM CI(int) / µL/min/mg>
106

$$$$
>  <Molecule>
Cc1ccc(S(=O)(=O)NCC2(C)COC2)cc1-c1cnc(N)c(-c2cn(C)nc2C)n1

>  <Assay M RLM CI(int) / µL/min/mg>
34

$$$$
>  <Molecule>
Cc1ncc(-c2nc(-c3cc(S(=O)(=O)NCC4(CO)COC4)ccc3C)cnc2N)s1

>  <Assay M RLM CI(int) / µL/min/mg>
37

$$$$

a: CCCc1noc(-c2nc(-c3cc(S(=O)(=O)N[C@H]4CC[C@H](O)CC4)ccc3C)cnc2N)n1
b: Cc1cn(-c2nc(-c3cc(S(=O)(=O)NCCC(C)(C)O)ccc3C)cnc2N)cn1
c: Cc1cc(-c2nc(-c3cc(S(=O)(=O)N[C@H]4CC[C@H](O)CC4)ccc3C)cnc2N)ccn1
d: Cc1ncc(-c2nc(-c3cc(S(=O)(=O)NC[C@H]4CCOC4)ccc3C)cnc2N)s1
Query: Rank the items in ascending order with respect to Assay M RLM CI(int). Provide your answer as the labels ordered per the instruction.
Response: c, b, a, d
(c: 30 µL/min/mg, b: 44 µL/min/mg, a: 82 µL/min/mg, d: 160 µL/min/mg)

a: Cc1ccc(S(=O)(=O)NCC(C)(C)O)cc1-c1cnc(N)c(-c2nc(C(C)C)no2)n1
b: Cc1ccc(S(=O)(=O)NCC(C)(C)O)cc1-c1cnc(N)c(-c2cnn(C)c2C)n1
Query: Of the two listed items, which has the higher Assay M RLM CI(int)? First: a Second: b Give the label under which the chosen entry appears.
Response: a

a: Cc1ccc(S(=O)(=O)NC[C@H]2CCOC2)cc1-c1cnc(N)c(-c2cn(C)nc2C)n1
b: Cc1cc(Cl)c(S(=O)(=O)NCC(C)(C)O)cc1-c1cnc(N)c(-n2cncn2)n1
Query: Kindly identify the item with the lower Assay M RLM CI(int) figure among these two: a and b Give the label under which the chosen entry appears.
Response: a
(a: 47 µL/min/mg, b: 79 µL/min/mg)

A: Cc1ncc(-c2nc(-c3cc(S(=O)(=O)NCC(C)(C)CO)ccc3C)cnc2N)s1
B: Cc1ccc(S(=O)(=O)NC2(CO)CC2)cc1-c1cnc(N)c(-n2cncn2)n1
Query: Kindly identify the item with the lower Assay M RLM CI(int) figure among these two: A and B Give the label under which the chosen entry appears.
Response: B
(B: 31 µL/min/mg, A: 50 µL/min/mg)
